We begin with a simple list: items and their reported remaining activity at 1 µM.
# assayed target: ZIC5 protein (Homo sapiens)
# Sequence (Q96T25 1-639): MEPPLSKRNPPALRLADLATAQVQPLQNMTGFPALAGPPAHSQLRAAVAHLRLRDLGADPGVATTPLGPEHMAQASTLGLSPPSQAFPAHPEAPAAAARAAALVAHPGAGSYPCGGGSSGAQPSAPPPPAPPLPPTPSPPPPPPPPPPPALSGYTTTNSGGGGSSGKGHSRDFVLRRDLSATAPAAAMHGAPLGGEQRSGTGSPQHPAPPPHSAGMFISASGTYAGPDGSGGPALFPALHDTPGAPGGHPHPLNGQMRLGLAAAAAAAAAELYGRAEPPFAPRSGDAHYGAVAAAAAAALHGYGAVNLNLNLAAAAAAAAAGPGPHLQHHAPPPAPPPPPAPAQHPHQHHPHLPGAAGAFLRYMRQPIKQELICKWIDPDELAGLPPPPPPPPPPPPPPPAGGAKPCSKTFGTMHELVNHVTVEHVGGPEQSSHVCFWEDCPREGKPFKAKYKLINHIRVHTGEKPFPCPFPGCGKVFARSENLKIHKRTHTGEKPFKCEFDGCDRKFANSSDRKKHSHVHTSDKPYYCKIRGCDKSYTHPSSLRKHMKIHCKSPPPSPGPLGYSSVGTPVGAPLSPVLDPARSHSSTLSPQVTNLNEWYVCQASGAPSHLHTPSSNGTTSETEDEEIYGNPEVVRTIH
# assay details: secondary screening: ZIC5 protein quantified by anti-ZIC5 immunostaining and imaging cytometer in A375 cells overexpressing ZIC5
# condition description: A-375, read-out: ZIC5 Protein Amount (Relative Value)

- compound: "C[C@@H]1O[C@@H](O[C@H]2C[C@@H](O)[C@]3(CO)[C@H]4[C@H](O)C[C@]5(C)[C@@H](C6=CC(=O)OC6)CC[C@]5(O)[C@@H]4CC[C@]3(O)C2)[C@H](O)[C@H](O)[C@H]1O"
  remaining activity at 1 µM: "67.8%"
- compound: "CC(=O)O[C@H]1C[C@]2(O)[C@@H]3CC[C@@H]4C[C@@H](O)CC[C@]4(C)[C@H]3CC[C@]2(C)[C@H]1c1ccc(=O)oc1"
  remaining activity at 1 µM: "76.4%"
- compound: "O=C1C=C2C(=CCOC2O)O1 (stereo not shown)"
  remaining activity at 1 µM: "76.7%"
- compound: "CCCCCCCCCCCCC/C=C/[C@H](O)[C@H](N)CO"
  remaining activity at 1 µM: "118%"
- compound: "C=C(C)[C@H]1O[C@H]2CC[C@@]3(C)[C@@](O)(CC[C@H]4C5OC(C)(C)[C@H]6C[C@@H]7C(=C)Cc8c(Cl)cc9[nH]c(c5c9c8[C@@]76O)[C@@]43C)[C@]23O[C@@H]3[C@H]1O (stereo partly shown)"
  remaining activity at 1 µM: "96%"
- compound: "COc1cc(O)c2c(c1)/C=C/C[C@H](O)[C@H](O)C(=O)/C=C\\C[C@H](C)OC2=O"
  remaining activity at 1 µM: "83.1%"
- compound: "C=C1C(=O)O[C@H]2C1CC/C(C)=C\\CC[C@@]1(C)O[C@H]21 (stereo partly shown)"
  remaining activity at 1 µM: "98.2%"

---

remaining activity at 0.1 µM for assorted compounds
# assayed target: ZIC5 protein (Homo sapiens)
# assay details: secondary screening: ZIC5 protein quantified by anti-ZIC5 immunostaining and imaging cytometer in A375 cells overexpressing ZIC5
# condition description: A-375, read-out: ZIC5 Protein Amount (Relative Value)
assay endpoint: remaining activity at 0.1 µM (%)

- compound: "C[C@@H]1O[C@@H](O[C@H]2C[C@@H](O)[C@]3(CO)[C@H]4[C@H](O)C[C@]5(C)[C@@H](C6=CC(=O)OC6)CC[C@]5(O)[C@@H]4CC[C@]3(O)C2)[C@H](O)[C@H](O)[C@H]1O [Compound T-11]"
  value unit: "%"
  quantitative readout: 90.6
- compound: "COc1cc(O)c2c(c1)/C=C/C[C@H](O)[C@H](O)C(=O)/C=C\\C[C@H](C)OC2=O [Compound T-2]"
  value unit: "%"
  quantitative readout: 89.6
- compound: "O=C1C=C2C(=CCOC2O)O1 (centres unmarked) [Compound T-1]"
  value unit: "%"
  quantitative readout: 83.4
- compound: "C=C1C(=O)O[C@H]2C1CC/C(C)=C\\CC[C@@]1(C)O[C@H]21 (some centres unmarked) [Compound T-3]"
  value unit: "%"
  quantitative readout: 89.8
- compound: "C[C@@H]1O[C@@H](O[C@@H]2C=C3CC[C@@H]4[C@H](CC[C@]5(C)[C@@H](c6ccc(=O)oc6)CC[C@]45O)[C@@]3(C)CC2)[C@H](O)[C@H](O)[C@H]1O [Compound T-10]"
  value unit: "%"
  quantitative readout: 70.2

---

# assayed target: ZIC5 protein (Homo sapiens, UniProt Q96T25)
# assay details: secondary screening: ZIC5 protein quantified by anti-ZIC5 immunostaining and imaging cytometer in A375 cells overexpressing ZIC5;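 further: compounds added at 0.1, 1, 5 or 10 µM to A375 cells overexpressing ZIC5 without a fusion tag, cells fixed the next day, ND means cells died before measurement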
# condition description: A-375, read-out: ZIC5 Protein Amount (Relative Value)

- compound: "C=C(C)[C@H]1O[C@H]2CC[C@@]3(C)[C@@](O)(CC[C@H]4C5OC(C)(C)[C@H]6C[C@@H]7C(=C)Cc8c(Cl)cc9[nH]c(c5c9c8[C@@]76O)[C@@]43C)[C@]23O[C@@H]3[C@H]1O (stereo partly drawn)"
  value unit: "%"
  remaining activity at 5 µM: 75.4
- compound: "C=C1C(=O)O[C@H]2C1CC/C(C)=C\\CC[C@@]1(C)O[C@H]21 (stereo partly drawn)"
  value unit: "%"
  remaining activity at 5 µM: 55.3
- compound: "CC(=O)O[C@H]1[C@H]2O[C@@]23[C@@H]2CC[C@]4(O)C[C@@H](O)CC[C@]4(C)[C@H]2CC[C@]3(C)[C@H]1c1ccc(=O)oc1"
  value unit: "%"
  remaining activity at 5 µM: 70.5

The reported measurements were obtained from patent US20240238241A1.
